pKi values for Adenosine receptor A1 (Homo sapiens, UniProt P30542) compiled from several publications are listed below.
One number for each entry, as −log10 of the molar value.

Value sought for every listed compound: pKi.
1. Cc1ccc(CNC(=O)c2cnc(-c3cccc(F)c3)nc2N)cc1
2. CC(=O)Nc1cc(-c2c(-c3cccc(C#N)c3)nn3ccc(N)nc23)cc(C)n1
3. N#Cc1c(-c2ccco2)nn2ccc(N3CCN(Cc4ccccc4)CC3)nc12
4. Cc1cc(-c2c(-c3cccc(C#N)c3)nn3ccc(C(=N)N)nc23)cc(C)n1
5. Cc1cc(-c2c(-c3cccc(C#N)c3)nn3ccc(C(=O)NC4CCNCC4)nc23)cc(Cl)n1
6. CCCOc1nc(-c2ccco2)nc(N)c1C(=O)NCc1ncccc1C
7. Cc1cc(-c2c(-c3cccc(C#N)c3)nn3ccc(C(=O)NCC4CCNC(=O)C4)nc23)cc(C)n1 (stereo not shown)
8. Cc1cc(-c2c(-c3cccc(C#N)c3)nn3ccc(N[C@@H]4COC[C@@H]4O)nc23)cc(Cl)n1

output:
5.35
6.23
6.56
6.59
6.15
7.36
6.44
6.63

Value sought for every listed compound: pKi.
1. Cc1cc(-c2c(-c3cccc(C#N)c3)nn3ccc(C(=O)N[C@H]4COC[C@H]4O)nc23)cc(C)n1
2. CCn1c(=O)c2c(C)c(CN3CCNC3=O)sc2n(CC2CCO2)c1=O (single isomer, unassigned; enantiomer 1)
3. Nc1nc(NCc2cccc(F)c2)nc2sc(-c3ccco3)nc12
4. Cc1cc(-c2c(-c3cccc(C#N)c3)nn3ccc(C(=O)NCC4(C)CCC(=O)NC4)nc23)cc(C)n1 (stereo not shown)
5. Cc1cc(-c2c(-c3cccc(C#N)c3)nn3ccc(C(=O)NC[C@H]4CNC(=O)C4)nc23)cc(C)n1
6. CC(C)(C)C(=O)Nc1cc(-c2ccccc2)nc(-c2ccccc2)n1
7. O=C(O)/C=C/c1c(-c2ccco2)nn2ccc(NCc3ccccc3)nc12

output:
1. 7.15
2. 6.02
3. 8.07
4. 7.55
5. 6.68
6. 7.56
7. 6.07

input: What value of pKi has been reported for the following compound? Cc1cc(-c2c(-c3cccc(C#N)c3)nn3ccc(N)nc23)cc(C(=O)O)n1
output: 5.95
